Test system: grafted B16 F0 murine melanoma tumour
Experiment: Biodistribution of the ^125I-labelled molecules in the melanoma-bearing mouse (autoradiography of whole-body sections)
Conditions: uvea; 3 H
Structures can show the parent of a compound that is named as a salt.
Mark true (1) for reported Biodistribution, Mean, uvea of 20 or greater; mark false (0) for anything smaller.

compound="CCN(CC)CCNC(=O)c1cc2c(I)cccc2cn1 [compound 39, dihydrochloride]" experimental_system="grafted B16 F0 murine melanoma tumour" assigned_category="false (0)"
compound=CCN(CC)CCNC(=O)c1cnc2cc(I)ccc2n1.Cl.Cl experimental_system="grafted B16 F0 murine melanoma tumour" assigned_category="true (1)"
compound="CCN(CC)CCNC(=O)c1c[nH]c2ccc(I)cc2c1=O [compound 35, dihydrochloride]" experimental_system="grafted B16 F0 murine melanoma tumour" assigned_category="false (0)"
compound="CCN(CC)CCNC(=O)c1cccc2cc3cc(I)ccc3nc12 [compound 111, dihydrochloride]" experimental_system="grafted B16 F0 murine melanoma tumour" assigned_category="false (0)"
compound="CCCN(CCC)CCCCNC(=O)c1ccc2cc(I)ccc2n1 [compound 49, dihydrochloride]" experimental_system="grafted B16 F0 murine melanoma tumour" assigned_category="true (1)"

---

Tested on: grafted B16 F0 murine melanoma tumour
Assay: Biodistribution of the ^125I-labelled molecules in the melanoma-bearing mouse (autoradiography of whole-body sections)
Conditions: blood; 6 H
Structures can show the parent of a compound that is named as a salt.
OBSERVED PROPERTY: Biodistribution, Mean, blood

molecule="CCN(CC)CCNC(=O)c1c[nH]c2ccc(I)cc2c1=O [compound 35, dihydrochloride]" endpoint_result=0.17
molecule=CCN(CC)CCNC(=O)c1cnc2cc(I)ccc2n1.Cl.Cl endpoint_result=3.09
molecule="CCCN(CCC)CCCCNC(=O)c1ccc2cc(I)ccc2n1 [compound 49, dihydrochloride]" endpoint_result=2.50
molecule="CCN(CC)CCNC(=O)c1cccc2cc3cc(I)ccc3nc12 [compound 111, dihydrochloride]" endpoint_result=0.42
molecule="CCN(CC)CCNC(=O)c1cc2c(I)cccc2cn1 [compound 39, dihydrochloride]" endpoint_result=2.17
molecule=CCN(CC)CCNC(=O)c1ccc2cncc(I)c2n1.Cl.Cl endpoint_result=1.36

---

Test system: grafted B16 F0 murine melanoma tumour
Test: Biodistribution of the ^125I-labelled molecules in the melanoma-bearing mouse (autoradiography of whole-body sections)
Settings: at 72 hours (FIG. 1B)
Structures can show the parent of a compound that is named as a salt.
// classify: if (tumour concentration, times higher than with BZA < 20 times) t else f

compound="CCN(CC)CCNC(=O)c1cnc2cc(I)ccc2n1.Cl.Cl [compound 46]" experimental_system="grafted B16 F0 murine melanoma tumour" assigned_category=t
compound="CCCN(CCC)CCCCNC(=O)c1ccc2cc(I)ccc2n1 [compound 49, dihydrochloride]" experimental_system="grafted B16 F0 murine melanoma tumour" assigned_category=t
compound="CCCN(CCC)CCCCNC(=O)c1cnc2cc(I)ccc2n1 [compound 144, dihydrochloride]" experimental_system="grafted B16 F0 murine melanoma tumour" assigned_category=f
compound="CCN(CC)CCNC(=O)c1nc2ccc(I)cc2[nH]1.Cl.Cl [compound 26]" experimental_system="grafted B16 F0 murine melanoma tumour" assigned_category=t
compound="CCN(CC)CCNC(=O)c1cccc2c(=O)c3cc(I)ccc3[nH]c12 [compound 84, hydrochloride]" experimental_system="grafted B16 F0 murine melanoma tumour" assigned_category=f
compound="CCN(CC)CCNC(=O)c1ccc2cc(I)ccc2n1.Cl.Cl [compound 31]" experimental_system="grafted B16 F0 murine melanoma tumour" assigned_category=t
